The values you see were collected from patent US20250376529A1.

Target: T1, Rhesus GIPR (rhesus, UniProt F7E1R9 22-466)
T1 sequence: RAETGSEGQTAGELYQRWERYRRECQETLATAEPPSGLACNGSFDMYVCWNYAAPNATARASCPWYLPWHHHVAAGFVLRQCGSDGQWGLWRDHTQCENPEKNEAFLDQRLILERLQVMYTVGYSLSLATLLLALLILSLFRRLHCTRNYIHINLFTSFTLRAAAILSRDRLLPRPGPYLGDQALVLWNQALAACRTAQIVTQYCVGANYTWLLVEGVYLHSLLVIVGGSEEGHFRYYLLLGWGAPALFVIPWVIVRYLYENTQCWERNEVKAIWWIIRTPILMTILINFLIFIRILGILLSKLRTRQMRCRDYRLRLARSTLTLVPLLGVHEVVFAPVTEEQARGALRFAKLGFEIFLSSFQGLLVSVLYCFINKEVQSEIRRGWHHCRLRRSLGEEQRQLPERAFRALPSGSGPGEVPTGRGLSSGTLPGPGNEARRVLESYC
Experiment: cell-based or functional assay
We begin with a simple list: items and their reported Rhesus GIPR CAMP Assay (Conc. mAb @ 60% Inhibition in nM).
assay-readout: Rhesus GIPR CAMP Assay (Conc. mAb @ 60% Inhibition in nM)

1. 17B11.002.006 (antibody, human IgG1, lambda, N297G, V domains shown) VH: QMQLVQSGAEVKKPGASVKVSCKASGYTFTSYDINWVRQAPGQGLEWMGWMNPNSGNTGYAQKFQGRVTMTRDTSISTAYMELSSLRSDDTAVYYCARGGDYVWGSYRPYYYYYGMDVWGQGTTVTVSS VL: QSVLTQPPSVSAAPGQKVTISCSGSSSNIGNNYVSWYQQLPGTAPKLLIYDNNKRPSGIPDRFSGSKSGTSATLAITGLQTGDEADYYCGTWDSSLSAVVFGGGTKLTVLG | 0
2. 2F11.009 (antibody, human IgG1, kappa, N297G, V domains shown) VH: QVQLVESGGGVVQPGRSLRLSCAASGFTFSSYGMHWVRQAPGKGLEWVAVIWYDASNKYYADSVKGRFTISRDNSKNTLYLQMNSLRAEDTAVYYCARDRTIFGVVLDYWGQGTLVTVSS VL: DIQMTQSPSSLSASVGDRVTITCQASQDISNYLNWYQQKPGKAPKLLIYDASNLETGVPSRFSGSGSGTDFSLTISSLQPEDFATYYCQQYDILLTFGGGTKVEIKR | 36.9
